Provide the recorded EC50 for the entries that follow.
# TARGET_SYSTEM: soluble guanylate cyclase (sGC) (Homo sapiens, UniProt Q02108+Q02153)
# Construct: endogenously expressing soluble guanylate cyclase (sGC); endogenous in cells; host or cells: HEK293
# Sequence (Q02153 whole entry): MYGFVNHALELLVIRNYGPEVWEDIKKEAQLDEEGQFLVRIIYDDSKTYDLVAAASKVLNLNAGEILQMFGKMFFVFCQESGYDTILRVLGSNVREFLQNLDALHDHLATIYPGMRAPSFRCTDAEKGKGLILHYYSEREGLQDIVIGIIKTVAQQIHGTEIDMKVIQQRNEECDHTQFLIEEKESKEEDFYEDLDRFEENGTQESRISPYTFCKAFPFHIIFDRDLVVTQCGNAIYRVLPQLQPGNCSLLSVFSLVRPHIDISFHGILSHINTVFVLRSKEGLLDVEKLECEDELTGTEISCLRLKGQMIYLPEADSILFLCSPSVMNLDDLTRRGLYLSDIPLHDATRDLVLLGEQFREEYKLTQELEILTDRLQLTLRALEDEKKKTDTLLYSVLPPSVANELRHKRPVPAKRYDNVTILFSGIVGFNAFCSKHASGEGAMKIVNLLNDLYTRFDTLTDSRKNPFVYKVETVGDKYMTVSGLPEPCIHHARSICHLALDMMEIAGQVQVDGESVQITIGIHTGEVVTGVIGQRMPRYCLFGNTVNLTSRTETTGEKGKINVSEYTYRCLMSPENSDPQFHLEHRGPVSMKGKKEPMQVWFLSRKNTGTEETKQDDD
# Sequence (Q02108 whole entry): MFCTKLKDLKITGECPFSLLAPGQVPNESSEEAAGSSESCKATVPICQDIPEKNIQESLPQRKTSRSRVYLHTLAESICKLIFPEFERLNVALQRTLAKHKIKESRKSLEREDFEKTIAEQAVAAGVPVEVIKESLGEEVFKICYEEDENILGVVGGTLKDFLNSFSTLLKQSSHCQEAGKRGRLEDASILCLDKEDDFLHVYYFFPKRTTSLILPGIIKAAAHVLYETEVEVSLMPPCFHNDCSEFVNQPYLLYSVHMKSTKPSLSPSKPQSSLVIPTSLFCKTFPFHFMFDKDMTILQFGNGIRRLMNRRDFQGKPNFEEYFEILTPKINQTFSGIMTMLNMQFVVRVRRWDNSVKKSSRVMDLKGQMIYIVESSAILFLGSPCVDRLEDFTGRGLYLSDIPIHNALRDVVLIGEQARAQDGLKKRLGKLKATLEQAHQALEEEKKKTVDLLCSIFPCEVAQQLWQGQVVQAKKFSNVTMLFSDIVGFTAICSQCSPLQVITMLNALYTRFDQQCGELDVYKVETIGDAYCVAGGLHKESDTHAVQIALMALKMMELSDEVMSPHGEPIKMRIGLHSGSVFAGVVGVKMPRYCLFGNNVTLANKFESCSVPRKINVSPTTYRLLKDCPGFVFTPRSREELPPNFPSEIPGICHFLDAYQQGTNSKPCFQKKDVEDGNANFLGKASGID
# RUN_DESCRIPTION: sGC-HEK-cGMP assay (run with SNP incubation)
# Format: cell-based
# EXPERIMENTAL_PARAMETERS: in the presence of 10 μM SNP; Table 3D; read-out: HEK assay EC50

Value wanted: EC50 (soluble guanylate cyclase (sGC) (Homo sapiens, UniProt Q02108+Q02153)) of entry CCCCCCCCCCC(=O)Nc1cnc(-c2cc(-c3ccon3)n(Cc3ccccc3F)n2)nc1N [Compound 58]
600 to 900 µM

Value wanted: EC50 (soluble guanylate cyclase (sGC) (Homo sapiens, UniProt Q02108+Q02153)) of entry CC1(C(=O)Nc2cnc(-c3cc(-c4ccon4)n(Cc4cccc(F)c4F)n3)nc2N)CC1 [Compound 10]
< 20 µM

Value wanted: EC50 (soluble guanylate cyclase (sGC) (Homo sapiens, UniProt Q02108+Q02153)) of entry Oc1nc(-c2cc(-c3ccon3)n(Cc3ccccc3F)n2)ncc1-c1ccsc1 [Compound 45]
100 to 300 µM

Value wanted: EC50 (soluble guanylate cyclase (sGC) (Homo sapiens, UniProt Q02108+Q02153)) of entry Oc1nc(-c2cc(-c3cocn3)n(Cc3ccccc3F)n2)ncc1F [Compound 48]
< 20 µM
